# tested on: CYP1A2 (UniProt P05177)
# Sequence (whole entry): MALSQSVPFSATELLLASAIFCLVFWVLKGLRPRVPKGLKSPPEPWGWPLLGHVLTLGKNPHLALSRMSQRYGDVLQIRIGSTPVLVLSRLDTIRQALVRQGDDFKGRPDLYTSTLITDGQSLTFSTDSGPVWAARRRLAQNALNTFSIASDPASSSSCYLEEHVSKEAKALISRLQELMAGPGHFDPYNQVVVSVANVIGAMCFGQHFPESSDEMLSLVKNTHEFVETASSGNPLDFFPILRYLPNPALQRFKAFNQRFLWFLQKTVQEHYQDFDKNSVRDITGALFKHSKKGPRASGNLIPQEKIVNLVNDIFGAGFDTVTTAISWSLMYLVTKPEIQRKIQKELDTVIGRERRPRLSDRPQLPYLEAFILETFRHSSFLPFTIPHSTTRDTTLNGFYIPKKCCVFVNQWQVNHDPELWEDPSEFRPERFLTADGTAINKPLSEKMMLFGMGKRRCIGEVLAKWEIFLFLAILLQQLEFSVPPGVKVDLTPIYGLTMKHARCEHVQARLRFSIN
# assay procedure: CYP enzyme activity (probe substrate metabolite formation) fold change vs solvent control; higher = stronger induction of CYP activity
# stated conditions: 5 µM; treatment time 24 h; HepaRG
endpoint: CYP enzyme activity

compound: c1ccc2c(c1)ccc1ccc3ccccc3c12 [benzo[c]phenanthrene]
value measured: 1.28
--
compound: c1ccc2cc3c(ccc4ccccc43)cc2c1 [benzo[a]anthracene]
value measured: 4.68
--
compound: c1ccc2c(c1)cc1ccc3cccc4c5ccccc5c2c1c34 [dibenzo[a,l]pyrene]
value measured: 2.27
--
compound: c1ccc2cc3c(cc2c1)-c1cccc2cccc-3c12 [benzo[k]fluoranthene]
value measured: 17.8
--
compound: c1ccc2c(c1)ccc1ccccc12 [phenanthrene]
value measured: 1.18
--
compound: c1cc2ccc3cccc4ccc(c1)c2c34 [pyrene]
value measured: 1.42

Data origin, for the record: the supplement of paper PMC7796163
